# procedure-summary: chemical genetic growth profiling, strain panel (AID 1159580);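 also: tested at 20 µM; growth read once vehicle control cultures reached saturation at 30 °C; 1 = growth at the plate median or of vehicle wells; lower values mean less growth of the strain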
# condition-summary: S. cerevisiae deletion strains, growth OD, locus YNL298W, strain CLA4
Screen size: about 5,500 compounds; about 2,000 (36%) were called active. Another 18% or so got no clear call; they are omitted. Rule as the data show it: active = normalized growth mostly below about 0.91 (no sharp cut-off); inconclusive = no clear call, values can overlap the other calls; inactive = mostly above about 0.92. Some of the results follow.
Respond only with the outcome that fits, drawn from 1 for active, -1 for inactive

compound	answer-label
COc1ccc2c(c1)OCC(Cc1ccc(OC)c(O)c1)C2=O (stereo not drawn)	-1
C[C@@H]1CC[C@H]2C(C)(C)C3CC12CC[C@@]3(C)O (stereo partly drawn)	1
CC(=O)O[C@]1(C)CC[C@@]23CC1C(C)(C)[C@@H]2CC[C@H]3C	-1
O=NN(CCCl)C(=O)NCCCl	1

q: Record request — test call for CC(=O)NCCc1c[nH]c2ccc(O)cc12
a: -1

q: // outcome(item) with item = COC1=CC(=O)OC(CCc2ccc(OC)c(OC)c2)C1 (stereo not drawn)
a: -1

q: Assay outcome for O=c1oc2ccccc2cc1O : what was it?
a: -1

q: Assay result, entry NCC[C@@H](O)C(=O)N[C@@H]1C[C@H](N)[C@@H](O[C@H]2O[C@H](CN)[C@@H](O)[C@H](O)[C@H]2O)[C@H](O)[C@H]1O[C@H]1O[C@H](CO)[C@@H](O)[C@H](N)C1O (stereo partly drawn) — outcome?
a: -1

q: Per the assay record, what outcome was assigned to COc1ccc2oc(-c3ccccc3)c(OC)c(=O)c2c1 ?
a: 1

q: Please share the test call associated with C1N2CN3CN1CN(C2)C3 .
a: -1

q: Can you look up the reported call for CN[C@@H]1C(OC2[C@H](O[C@H]3[C@H](O)[C@@H](O)[C@H](N=C(N)N)[C@@H](O)[C@@H]3N=C(N)N)OC(C)[C@]2(O)CO)OC(CO)C(O)C1O (stereo partly drawn) for me?
a: -1

q: Dear all, I need the recorded test outcome for FC(F)(F)c1cccc(N2CCNCC2)c1 , thank you.
a: -1

q: Test call, this compound: CC1CCC(NC(=O)N(CCCl)N=O)CC1 (stereo not drawn)
a: -1

q: I would be grateful if you could indicate the recorded call for Cc1nnc(NS(=O)(=O)c2ccc(N)cc2)s1 .
a: -1

q: Recorded test outcome, item COc1ccc2c(c1)OCC(Cc1ccc(OC)c(OC(C)=O)c1)C2=O (stereo not drawn)
a: -1

---

Some compounds, each annotated with its measured normalized growth.
# procedure-summary: chemical genetic growth profiling, strain panel (AID 1159580);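 also: tested at 20 µM; growth read once vehicle control cultures reached saturation at 30 °C; 1 = growth at the plate median or of vehicle wells; lower values mean less growth of the strain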
# condition-summary: S. cerevisiae deletion strains, growth OD, locus YBL105C, strain PKC1, stronger effect = lower value
The campaign covered roughly 5,500 compounds. About 2,000 (36%) were called active. Inconclusive results (about 18%) are left out. The list shows a part of the results.
No unit in the answer, please; the number alone is enough.

Reference set, count: 5
                                   compound  reported
0             Clc1ccccc1-c1csc(-c2cccnc2)n1     0.934
1  Cc1ccc(-c2nc(NS(=O)(=O)c3cccc4nonc34)sc2C)cc1Cl     0.972
2  COc1ccc(Nc2nc(NC(=O)Nc3ccc(Cl)cc3)n[nH]2)cc1     0.994
3             COc1ccc(-c2cn3cc(C)ccc3n2)cc1     0.975
4  N#CC(C#N)=Cc1c(-c2ccccc2Cl)[nH]c2ccccc12     0.962

q: What measured normalized growth goes with N#Cc1ccc(Oc2sccc2[N+](=O)[O-])cc1 ?
a: 0.978

q: Fill blank: measured normalized growth of the compound Cn1nccc1-c1cc(Cl)cc(Cl)c1O is ____.
a: 0.959

q: Can you look up the measured normalized growth of O=[N+]([O-])c1ccsc1Oc1cccc(C(F)(F)F)c1 for me?
a: 0.986

q: Using the record for CC1C(c2ccccc2)N(C)C(c2ccccc2)CC1(O)c1ccc(F)cc1 (configuration not stated) , report its normalized growth.
a: 0.991

q: Name the reported normalized growth value associated with the compound COc1ccc(-c2csc(-c3cccnc3)n2)cc1
a: 0.966

q: Value lookup for normalized growth; key = CN(C)c1ccc(/C=C/c2ccc3ccccc3[n+]2C)cc1
a: 0.961

q: // lookup normalized growth for Clc1cc(Cl)cc(C=NCc2ccccc2)c1
a: 0.946
